- ASSAY_DETAILS: yeast display, Sf9 membrane polyspecificity reagent, FACS + sequencing; frameworks hold sequencing errors
ASSAY_METRIC: polyreactivity (PSR sort gate)

The following sequences have reported results that may help.
Lab book: polyreactivity (PSR sort gate) of QFQLVESGGGLVQAGASLRLSSAASGSTFVFYAMGWYRQAPGKERELVATISTGVSTYADSVKGRFTISRDNAKNTVYLQMNSLKPEDTAVYYCAADSLFGHYDYSGQGTQVTVSS noted as low polyreactivity

Lab book: polyreactivity (PSR sort gate) of QVQLVESGGGLVQAGGSLRLSCAASGLTFSSNAMGWSRQAPGKERELVAVITNGGSTNYADSVKGRFTISRDNAKNTVYLQMNSLKPEDTAVYYCAKDGGPAQDIGMDYWGQGTQVTVSS noted as low polyreactivity

Lab book: polyreactivity (PSR sort gate) of QDQHVESGGGLVQAGGSLRLICDASGGIFGTNDMGWYRQAPGKERELVAAITSDSGATYYADSVKGRFTISRDNAKNTVYLQMNSLKPEDTAVYYCAAEDGPWFYRYGYWGQGTQVTVSS noted as low polyreactivity

Lab book: polyreactivity (PSR sort gate) of QVQLVESAGGLVQAGGSLRLSCAASGSILVLNAMGWSRQAPGKERELVAAITSRGTRTYYADSVKGRFTISRDNAKNTVYLQLNSLNPEDTAVYYCAAKAGYRYGSLAYYKYDYWGQGTQVTLSS noted as high polyreactivity

Further cases:
Lab book: polyreactivity (PSR sort gate) of QDHLVESGGGLVQAGGSLRLSCAASGSIFRRNAMGWYRQAPGKERELVAAIRYSGDRTYYADSVKGRFTISRDNAKNTVYLQMNSLKPEDTAVYYCAAKRSVSYYGYYYWGQGSQVTVSS noted as high polyreactivity

Lab book: polyreactivity (PSR sort gate) of QVQLVESGGGLVQAGGSLRLSCAASGRISSNVMGWYRQAPGKERELVAAISVSGARTYYADSVKGRFTISRDNAKNTVYLQMNSLKPEDTAVYDCAAVYGGVYYGGDYWGQGTQVTVSS noted as high polyreactivity

###

- ASSAY_DETAILS: yeast display, Sf9 membrane polyspecificity reagent, FACS + sequencing; frameworks hold sequencing errors
ASSAY_METRIC: polyreactivity (PSR sort gate)

Lab book: polyreactivity (PSR sort gate) of QVQLVESGGGLVQAGGSLRLSCAASGRTFYSYAMGWYRQAPGKERELVAAISAGGSTYYADSVKGRFTISRDNAKNTVYLQMNSLKPEDTAVYYCAATYSYYYARYHYWGQGTQVTVSS noted as high polyreactivity

Lab book: polyreactivity (PSR sort gate) of QVQLVESGGGLVQAGGSLRLSCAASGITFKYTAMGWYRQAPGKERELVAAISRRGGRTYYADSVKGRFTISRDNAKNTVYLQMNSLKPEDTAVYYCNVETWSVGGREYDYWGQGTQVTVSS noted as high polyreactivity

###

- ASSAY_DETAILS: yeast display, Sf9 membrane polyspecificity reagent, FACS + sequencing; frameworks hold sequencing errors
ASSAY_METRIC: polyreactivity (PSR sort gate)

The following sequences have reported results that may help.
Lab book: polyreactivity (PSR sort gate) of QVQLVESGGGLVQAGGSLRLSCGAYGLTFTYNTMGWYRPAPGKERELVAAITSSGGRTYYADSVKGRFTISRDHAKNTVYFQMNSLKPEDTAVYYCAKTKYYPKRDYYWGQGTLVTVSS noted as high polyreactivity

Lab book: polyreactivity (PSR sort gate) of QVQLVESGGGLVQAGGSLRLSCAASGSTFAHYAMGWYRQAPGKERELVAAITTSGSSTYYADSVKGRFTISRDNAKNTVYLQMNSLKPEDTAVYYCNARGSYYHYRGERNYWGQGTQVTVSS noted as low polyreactivity

Lab book: polyreactivity (PSR sort gate) of QVQLVESGGGLVQAGGSLRLSCAASGSIIAGYTMGWYRQAPGKERELVAGIRRGGSTNYADSVKGRFTISRDNAKNTVYLQMNSLKPEDTAVYYCNAQRTRSYVLRTFDYWGQGTQVTVSS noted as high polyreactivity

Lab book: polyreactivity (PSR sort gate) of QVQLVESGGGLVQAGGSLRLSCAASGSIISGNVMGWYRQAPGKEREFVATISWRGGNTYYADSVKGRFTISRDNAKNTVYLQMNSLKPEETAVYDCATRRLYSKSWYYYWGQGTQVTVSS noted as high polyreactivity

Lab book: polyreactivity (PSR sort gate) of QVQLVESGGGLVQAGGSLRLSCAASGSIFSVNAMGWYRQAPGKERELVATIRWSGSSTYYADSVKGRFTISRDNAKNSVYLQMKSLKPEDTAVYYCAADSTEIPWCGMDYWGQGTQVTLSS noted as low polyreactivity

Lab book: polyreactivity (PSR sort gate) of QVQLVESCGGLVQAGGSLRLSCAASGRTFYKAMGWYRQAPGKERELVAASTTGGGTKYADSVKGRFTISRDNAQNTVYLQMNSLKPEDTAVYYCNTDEWYHFYHGAHKYDYWGQGTQVTVSS noted as low polyreactivity

Lab book: polyreactivity (PSR sort gate) of QVQLVESGGGLVQAGGSLRLSCAASGGIFYDYAMGWYRQAPGKERELVAAITRSGDSTYYADSVKGRFTISRDNPKNTVYLQMNSLKPEDTAVYYCAADIWSSDYEEFYYWGQGTQVTVSS noted as low polyreactivity

Lab book: polyreactivity (PSR sort gate) of QVQLVESGAGLVQAGGSLRLSCAASGSIFKYNTMGWYRQAPGKERELVATISGGGRTYYADSVKGRFTISRDNAKNTVYLQMNSLKPEDTAVYYCAARKRGTFTYDYWGQGTQVTVSS noted as high polyreactivity

Attention now turns to another entry.
Lab book: polyreactivity (PSR sort gate) of HDQLVESGGGFVQAGGSLRLICAASGSTFIGYAMGWYRQAPGKERELVADISWSGGRTYYADSVKGRFTISRDNEKNTVYLQMNSLKPEDTAVYYCAARGSGHTRSYYWGQGTQVTVSS noted as high polyreactivity
